test system: 786-0 renal; assay: NCI-60 one-dose screen, 48 h; conditions: 10 µM unless noted
The panel holds about 83,000 compounds, 20% with a hit somewhere; the sample as a whole holds those more often. Active and inactive are the calls of the source. Rule for the calls: active = growth percent below 10; inactive = the rest.
Outcome (select one): Y = active, N = inactive

Request: Outcome logged for CC1C=CC(OC(=O)C(C)(O)CCC(O)(C(=O)OC2CC(O)C(C(C)C)CC2(C)O)C(C)C)(C(C)C)CC1 (stereo not drawn) in this assay:
Result: Y

Request: Outcome logged for CCCCNc1cc(-c2cn[nH]c2-c2cc(C)cc(OC)c2)nc(-c2cccnc2)n1 in this assay:
Result: N

Request: Outcome logged for C=C1C(=O)O[C@H]2[C@H]1CC/C(CNC(=O)c1c[nH]c3ccc(F)cc13)=C\CC[C@@]1(C)O[C@@H]21 in this assay:
Result: Y

Request: Outcome logged for CNC(C)[C@H]1CCC2C3CC=C4C(=O)[C@@H](NC(=O)C=C(C)C)CC[C@]4(C)C3CC[C@@]21C (stereo partly drawn) in this assay:
Result: Y

Request: Outcome logged for CC1=C(C(=O)Nc2ccccc2)C(c2ccc3c(c2)OCO3)NC(=S)N1 (stereo not drawn) in this assay:
Result: N

Request: Outcome logged for Cc1[nH]c(C2CC(c3ccc(C(F)(F)F)c(F)c3)=NN2c2ccccc2)c(C)c1C(=O)NCC(F)(F)F (stereo not drawn) in this assay:
Result: N

Request: Outcome logged for [2H]C([2H])([2H])Oc1ccc(F)cc1/C=C/C(=O)/C=C(O)/C=C/c1cc(F)ccc1OC([2H])([2H])[2H] in this assay:
Result: N

Request: Outcome logged for CC1C(/C=N/NC(N)=S)C(C#N)(C#N)C1(C#N)C#N (stereo not drawn) in this assay:
Result: N

Request: Outcome logged for CCN(CC)Cc1cc(Nc2ccnc3cc(Cl)ccc23)ccc1O in this assay:
Result: N

Request: Outcome logged for COc1ccc2c(c1)c(-c1nc(-c3c[nH]c4ncccc34)cs1)cn2CCO in this assay:
Result: N

Request: Outcome logged for O=C(CI)NC(=O)NC(=O)NCc1ccccc1 in this assay:
Result: N

Request: Outcome logged for COc1cc(OC)cc(-c2ccc(-c3ccc(C(=N)N)o3)o2)c1 in this assay:
Result: N

Request: Outcome logged for CSC1=Nc2c(c(C)c(-c3ccccc3)n2CCCC(=O)O)C2=NC(=O)C[C@H](C)N12 in this assay:
Result: N

Request: Outcome logged for COc1ccc(/C(C)=C(\c2ccc(Cl)cc2)c2ccc(OCCN3CCCCC3)cc2)cc1 in this assay:
Result: Y

Request: Outcome logged for CN1CCN(c2ccc3nc4c(nc3c2C(F)(F)F)C(=O)c2ncccc2C4=O)CC1 in this assay:
Result: N

Request: Outcome logged for Nc1nc(N)c2c(n1)NC(c1ccc(Cl)cc1)C1CCc3ccccc3C1=N2 (stereo not drawn) in this assay:
Result: N

Request: Outcome logged for COc1cc2c(cc1OCCCCN1CCN(C(=S)SCCC(C#N)(c3ccccc3)c3ccccc3)CC1)N=C[C@@H]1CCCN1C2=O in this assay:
Result: Y

Request: Outcome logged for CC1(C)[C@@H](O[C@@H]2OC[C@@H](O[C@@H]3O[C@H](CO)[C@@H](O)[C@H](O)[C@H]3O[C@@H]3OC[C@@H](O)[C@H](O)[C@H]3O)[C@H](O)[C@H]2O[C@@H]2O[C@H](CO)[C@@H](O)[C@H](O)[C@H]2O)CC[C@]2(C)[C@H]3CC[C@]45OC[C@@]6(CC[C@](C)(C=O)C[C@H]64)[C@H](O)C[C@@]5(C)[C@]3(C)CC[C@@H]12 in this assay:
Result: Y
